- Tested system: T1, RBFOX1 RRM (Homo sapiens, UniProt Q9NWB1 109-208)
- T1 sequence: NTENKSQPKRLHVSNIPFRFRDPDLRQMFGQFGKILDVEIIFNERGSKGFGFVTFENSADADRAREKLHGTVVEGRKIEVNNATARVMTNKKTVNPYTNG
- Method: EMSA; HiTS-Eq, 1 nM pool, 10 min; buffer printed only for the single-RNA assays: 10 mM Tris pH 7.5, 150 mM NaCl, 3.4 mM EDTA, 0.001% NP-40, 30 C
- Condition summary: tags: His6 N-terminal (pET28a); label: 5' 32P
In all, about 16,000 sequences were measured (“ka relative to ugcaugu”: median about 0.0091, highest 2% from about 0.032 on). Many of the other results were omitted from the sample, so the highest values are more common in it than they were.
Property name: binding signal

1. UGCGCGU (DNA:RNA) RNA: GGGAGACCGGAAUUCAGAUUGUCCUGCGCGUUUAAAUCCCGUCGUAGCCACCA DNA 1: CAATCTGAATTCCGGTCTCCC DNA 2: TGGTGGCTACGACGGGATT; 0.0288 KA relative to UGCAUGU
2. UUUCACC (DNA:RNA) RNA: GGGAGACCGGAAUUCAGAUUGUCCUUUCACCUUAAAUCCCGUCGUAGCCACCA DNA 1: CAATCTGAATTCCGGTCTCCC DNA 2: TGGTGGCTACGACGGGATT; 0.00771 KA relative to UGCAUGU
3. CAAACAU (DNA:RNA) RNA: GGGAGACCGGAAUUCAGAUUGUCCCAAACAUUUAAAUCCCGUCGUAGCCACCA DNA 1: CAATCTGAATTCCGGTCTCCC DNA 2: TGGTGGCTACGACGGGATT; 0.000358 KA relative to UGCAUGU
4. UGCCCAG (DNA:RNA) RNA: GGGAGACCGGAAUUCAGAUUGUCCUGCCCAGUUAAAUCCCGUCGUAGCCACCA DNA 1: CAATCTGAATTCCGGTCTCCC DNA 2: TGGTGGCTACGACGGGATT; 0.0164 KA relative to UGCAUGU
5. ACUUGAA (DNA:RNA) RNA: GGGAGACCGGAAUUCAGAUUGUCCACUUGAAUUAAAUCCCGUCGUAGCCACCA DNA 1: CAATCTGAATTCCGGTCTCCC DNA 2: TGGTGGCTACGACGGGATT; 0.0101 KA relative to UGCAUGU
6. CUAAUUG (DNA:RNA) RNA: GGGAGACCGGAAUUCAGAUUGUCCCUAAUUGUUAAAUCCCGUCGUAGCCACCA DNA 1: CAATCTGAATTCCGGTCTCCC DNA 2: TGGTGGCTACGACGGGATT; 0.013 KA relative to UGCAUGU
7. UGUUGCG (DNA:RNA) RNA: GGGAGACCGGAAUUCAGAUUGUCCUGUUGCGUUAAAUCCCGUCGUAGCCACCA DNA 1: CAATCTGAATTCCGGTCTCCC DNA 2: TGGTGGCTACGACGGGATT; 0.0326 KA relative to UGCAUGU
8. AGCUCAC (DNA:RNA) RNA: GGGAGACCGGAAUUCAGAUUGUCCAGCUCACUUAAAUCCCGUCGUAGCCACCA DNA 1: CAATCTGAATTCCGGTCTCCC DNA 2: TGGTGGCTACGACGGGATT; 0.00457 KA relative to UGCAUGU
9. GGCUAAG (DNA:RNA) RNA: GGGAGACCGGAAUUCAGAUUGUCCGGCUAAGUUAAAUCCCGUCGUAGCCACCA DNA 1: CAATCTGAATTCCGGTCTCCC DNA 2: TGGTGGCTACGACGGGATT; 0.0134 KA relative to UGCAUGU
